assay: in vitro; settings: human
Experimental Endpoint: CC50

Request: Value lookup for CC50; key = CCCN1CCN(c2ccc(C(=O)NC3(C(=O)NCC#N)CCCCC3)cc2)CC1
Result: > 100 µM
